Listed here are binders together with their documented pKd.
# target-desc: T1, purified ALK protein (BLitz, Table 20) (Homo sapiens (Human), UniProt Q9UM73 19-1038, limits assumed)
# T1 construct: also called purified ALK proteins
# T1 sequence (Q9UM73 19-1038 limits assumed): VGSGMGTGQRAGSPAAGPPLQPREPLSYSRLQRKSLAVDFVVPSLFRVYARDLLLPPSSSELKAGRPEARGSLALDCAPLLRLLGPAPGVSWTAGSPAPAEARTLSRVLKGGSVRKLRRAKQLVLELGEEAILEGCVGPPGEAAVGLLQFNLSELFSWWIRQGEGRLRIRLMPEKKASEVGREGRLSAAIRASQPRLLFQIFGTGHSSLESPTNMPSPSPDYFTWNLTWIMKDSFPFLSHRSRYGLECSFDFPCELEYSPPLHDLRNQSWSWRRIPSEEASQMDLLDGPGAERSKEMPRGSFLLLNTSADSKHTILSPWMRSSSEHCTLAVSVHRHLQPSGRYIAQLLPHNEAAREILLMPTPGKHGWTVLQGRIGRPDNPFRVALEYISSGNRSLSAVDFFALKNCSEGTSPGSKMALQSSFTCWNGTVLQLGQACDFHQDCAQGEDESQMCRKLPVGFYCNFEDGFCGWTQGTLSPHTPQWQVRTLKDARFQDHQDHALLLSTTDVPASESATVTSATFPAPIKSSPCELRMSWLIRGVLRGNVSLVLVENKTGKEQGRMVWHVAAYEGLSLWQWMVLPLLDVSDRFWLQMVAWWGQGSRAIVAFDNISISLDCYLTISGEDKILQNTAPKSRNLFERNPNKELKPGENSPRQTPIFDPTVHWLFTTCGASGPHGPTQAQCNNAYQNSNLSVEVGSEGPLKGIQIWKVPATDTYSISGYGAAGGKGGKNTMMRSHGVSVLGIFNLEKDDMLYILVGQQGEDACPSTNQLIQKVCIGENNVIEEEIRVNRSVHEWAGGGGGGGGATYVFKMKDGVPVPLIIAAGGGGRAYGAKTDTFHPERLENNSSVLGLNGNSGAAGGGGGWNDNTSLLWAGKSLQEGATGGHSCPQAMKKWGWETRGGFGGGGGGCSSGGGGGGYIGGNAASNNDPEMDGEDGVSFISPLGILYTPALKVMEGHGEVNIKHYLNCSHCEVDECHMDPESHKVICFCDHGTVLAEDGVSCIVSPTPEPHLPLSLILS
# assay-name: BLI (BLitz), mAb on Protein A tip, purified ALK in solution
Schema: pKd number; meaning minus log10 of the concentration expressed in molar units.

binder: Ab380 (antibody, V domains shown, humanized) VH: EVQLVQSGAEVKKPGASVKLSCKASGYTFTSYWMHWVRQAPGQGLEWIGYIKPSSGYTKYNQKFKDKATLTADKSTSTAYMELRSLRSDDTAVYYCARDYYGSSSWFAYWGQGTLVTVSS VL: EIVMTQSPAFMSVTVGEKVTITCKASQNVGTNVAWYQQKPDQSPKALIYSASYRYSGVPSRFSGSGSGTDFTLTISSLEAEDAATYYCQQYNSYPYMYTFGQGTKLEIK
result-value: 6.85

Problem: Name the reported pKd value associated with the binder Ab427 (antibody, V domains shown, humanized) VH: QVQLVQSGAEVAKPGASVKLSCKASGYTFTSYWMHWVKQAPGQGLEWIGYIKPSSGYTKYNQKFKDKATLTADKSTSTAYMELRSLRSDDTAVYYCARDYYGSSSWFAYWGQGTLVTVSS VL: EIVMTQSPATLSTSPGERATLSCRASQSVSSNLAWYQQKPGQAPRALIYSASYRYSGVPARFSGSGSGTDFTLTISSVEPEDFAVYYCQQYNSYPYMYTFGQGTKLEIK
Result: 6.79

Problem: Name the reported pKd value associated with the binder Ab433 (antibody, V domains shown, humanized) VH: EVQLVQSGAEVKKPGSSVKVSCKASGYTFSSYWMHWVRQAPGQGLEWIGYIKPSSGYTKYNQKFKDKATLTADKSTSTAYMELSSLRSEDTAVYYCARDYYGSSSWFAYWGQGTLVTVSS VL: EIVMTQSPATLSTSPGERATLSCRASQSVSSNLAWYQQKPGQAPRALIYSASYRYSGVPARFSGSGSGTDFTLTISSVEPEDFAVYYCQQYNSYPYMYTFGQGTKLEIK
Result: 6.71

Problem: Name the reported pKd value associated with the binder Ab371 (antibody, V domains shown, humanized) VH: QVQLVQSGAEVAKPGSSVKLSCKASGYTFTSYWMHWVKQAPGQGLEWIGYIKPSSGYTKYNQKFKDKATLTADKSTSTAYMELSSLRSEDTAVYYCARDYYGSSSWFAYWGQGTLVTVSS VL: DIVMTQSQAFMSVTVGEKVTITCKASQNVGTNVAWYQQKPDQAPKALIYSASYRYSGVPSRFSGSGSGTDFTLTISSLEAEDAATYYCQQYNSYPYMYTFGQGTKLEIK
Result: 6.89

Problem: Name the reported pKd value associated with the binder Ab361 (antibody, V domains shown, humanized) VH: EVQLVQSGAEVKKPGSSVKVSCKASGYTFSSYWMHWVRQAPGQGLEWIGYIKPSSGYTKYNQKFKDKATLTADKSTSTAYMELSSLRSEDTAVYYCARDYYGSSSWFAYWGQGTLVTVSS VL: EIVMTQSPAFLSVTPGEKVTITCKASQNVGTNVAWYQQKPDQAPKALIYSASYRYSGVPSRFSGSGSGTDFTLTISSLEAEDAATYYCQQYNSYPYMYTFGQGTKLEIK
Result: 6.82
